# assay.explanation: Cytotoxicity against human GLC82 cells assessed as growth inhibition after 48 hrs by MTT assay
# Type: functional, cell-based
# condition.description: GLC82, 48 h
quantity.measured: IC50

So what does the record say about IC50 for CCOC1c2c(ccc3c2OCO3)-c2ccc3cc4c(cc3c2N1C)OCO4 (stereo unspecified) ? 1300 nM
